# assay.explanation: Ratio of drug level in heart to blood in Sprague-Dawley rat after 5 mins
# Type: ADME
# test.parameters: heart and blood (heart-to-blood ratio)
reported.metric: Kp at 5 min

chemical.string	quantitative.result
[18F]c1ccc([P+](c2ccccc2)(c2ccccc2)c2ccccc2)cc1	11

* * *

# Tested on: Liver
# assay.explanation: Biodistribution in rat liver at 1.1 to 2.2, iv after 60 mins
# Type: ADME, organism-based
# test.parameters: in vivo, 1 h
The entries below are paired with their reported Drug uptake.
reported.metric: Drug uptake (% ID/g)

chemical.string	quantitative.result
CCN(CC)c1ccc2c(-c3ccccc3C(=O)OCCC[18F])c3ccc(=[N+](CC)CC)cc-3oc2c1.Cc1ccc(S(=O)(=O)[O-])cc1	0.55
CCN(CC)c1ccc2c(-c3ccccc3C(=O)OCC[18F])c3ccc(=[N+](CC)CC)cc-3oc2c1.Cc1ccc(S(=O)(=O)[O-])cc1	0.89
CCN(CC)c1ccc2c(-c3ccccc3C(=O)OCCOCC[18F])c3ccc(=[N+](CC)CC)cc-3oc2c1.Cc1ccc(S(=O)(=O)[O-])cc1	0.49
CCN(CC)c1ccc2c(-c3ccccc3C(=O)OCCOCCOCC[18F])c3ccc(=[N+](CC)CC)cc-3oc2c1.Cc1ccc(S(=O)(=O)[O-])cc1	0.25

Data provenance is ChEMBL document CHEMBL2176917.
